# credit: the supplement of paper PMC10567573

B1: RHOBTB3 (parent)
chain: KVVEAHKIVLCAVSHVFMLLFNVK

- Variants of: B1
- experiment_description: protein stability index of a GFP-peptide fusion (GPS, HEK-293T) (PSI 1-6); higher = more stable;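 further: lentivirally expressed fusions sorted by FACS into six bins by GFP to DsRed ratio, PSI derived from sequencing read proportions per bin multiplied by bin number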
- protocol_conditions: c terminus: a fixed tail appended
recorded_metric: protein stability index
Numbers only.

These recorded examples may help you get a feel for the data.
> print(dat)
   variant.code  result.value
1          L10S          3.43
2          M18S          1.95
3          V13A          1.41
4           V2Q          2.04
5          M18G          2.75

Okay, here is my list. What is protein stability index for each of these?
1. F21K
2. E4C
3. N22F
4. K24R
5. A5R
6. L10E
7. F17H

Output:
[1.76, 2.67, 2.43, 2.48, 3.59, 2.73, 3.54]
